Target: T1, rmIGF-1R protein (murine IGF-1R extracellular domain, R&D Systems cat 6630-GR/Fc) (murine, UniProt Q60751 31-936)
T1 construct: extracellular domain; Bought reagent; not shown: Fc part implied by the catalogue number /Fc; not described
T1 sequence (Q60751 31-936): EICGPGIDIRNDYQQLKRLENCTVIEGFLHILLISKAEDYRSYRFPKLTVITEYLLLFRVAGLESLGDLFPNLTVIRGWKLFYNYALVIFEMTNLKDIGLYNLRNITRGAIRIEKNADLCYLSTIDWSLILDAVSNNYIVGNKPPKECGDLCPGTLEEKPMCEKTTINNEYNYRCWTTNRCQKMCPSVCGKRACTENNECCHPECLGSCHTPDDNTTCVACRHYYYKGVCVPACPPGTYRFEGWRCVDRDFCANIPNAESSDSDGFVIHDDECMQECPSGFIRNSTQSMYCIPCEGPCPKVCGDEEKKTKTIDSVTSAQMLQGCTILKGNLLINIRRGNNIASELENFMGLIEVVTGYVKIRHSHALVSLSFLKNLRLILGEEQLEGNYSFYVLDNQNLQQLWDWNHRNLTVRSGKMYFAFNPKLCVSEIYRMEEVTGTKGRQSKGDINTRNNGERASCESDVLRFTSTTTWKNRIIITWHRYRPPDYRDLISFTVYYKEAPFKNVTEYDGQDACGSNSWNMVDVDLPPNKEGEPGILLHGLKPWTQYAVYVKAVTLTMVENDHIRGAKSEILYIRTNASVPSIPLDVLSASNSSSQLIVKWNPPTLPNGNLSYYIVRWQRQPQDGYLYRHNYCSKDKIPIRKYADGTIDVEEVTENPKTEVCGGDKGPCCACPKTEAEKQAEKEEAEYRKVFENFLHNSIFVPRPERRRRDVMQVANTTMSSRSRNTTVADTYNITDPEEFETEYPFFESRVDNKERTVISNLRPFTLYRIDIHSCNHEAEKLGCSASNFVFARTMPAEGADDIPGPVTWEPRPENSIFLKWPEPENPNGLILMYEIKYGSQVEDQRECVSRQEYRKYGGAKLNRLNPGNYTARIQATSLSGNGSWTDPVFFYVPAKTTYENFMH
Test: ELISA on coated rmIGF-1R, SNT at 5 µg/ml
METRIC NAME: D.O 450 nm
The reply should read as a number followed by its unit.

The binder listed as murine antibody 213B10 (hybridoma CNCM I-4774) (antibody, V domains shown, also called m213B10) VH: QVQLQQSGSELVKPGASVKMSCKASGYTFTSYYIHWVKQRPGQGLEWIGWIWPGDGSTKYNERFKGKTTLTADKSSSTAYMFLSSLTSEDSAVYFCASPMITPNYAMDYWGQGASVTVSS VL: DIQMTQTTSSLSASLGDRVTISCRASQDISKYLNWYQQQPDGTIKLLIYYTSRLHSGVPSRFSGRGSGTDYSLTITNLEQEDIATYFCQQGSALPYTFGGGTKLEIK shows D.O 450 nm equal to 0.127 OD 450 nm

Lookup result for murine antibody 219D6 (hybridoma CNCM I-4736) (antibody, V domains shown, also called m219D6) VH: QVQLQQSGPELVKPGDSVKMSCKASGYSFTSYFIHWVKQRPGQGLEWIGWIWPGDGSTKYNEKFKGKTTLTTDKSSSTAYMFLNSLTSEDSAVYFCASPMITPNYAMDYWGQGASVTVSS VL: DIQMTQTTSSLSASLGDRVTISCRASQDISKYLNWYQQQPDGTVKLLIYYTSRLHSGVPSRFSGRGSGTDYSLTISNLEQEDIATYFCQQGSTLPYTFGGGTKLEIK ; measured D.O 450 nm: 0.112 OD 450 nm

Values compiled from patent US20200270352A1.
